# Test system: RXF 393
# assay_remarks: NCI tumour cell line growth inhibition, 48 h
Active and inactive are the calls of the source. Rule as the data show it: active = GI50 up to about 1.1 µM and inactive = higher.
Reported GI50 is given for each of the following molecules.

Observe how each entry below is paired with its result.
molecule	target_under_test	GI50
CC(C)(C)CC(C)(C)c1ccc(O)c(C[N+](C)(C)[O-])c1	RXF 393	> 100 µM (inactive)
CC(C)=CC(=O)CC(=O)C(=O)Nc1ccc(Cl)c(Cl)c1	RXF 393	> 100 µM (inactive)

Qu. So what's the measured GI50 for this one? Fc1cccc(C2SCC3=Nc4ccccc4CN32)c1 (stereo not given)
Ans. 26.8 µM (inactive)

Qu. So what's the measured GI50 for this one? OCC1OC(Oc2cc(O)cc(/C=C\c3ccc(O)cc3)c2)C(O)C(O)C1O (stereo not given)
Ans. > 100 µM (inactive)

Qu. So what's the measured GI50 for this one? CC1(C)OC(=S)N(c2ccccc2)C12C=Cc1cc3ccccc3cc1O2 (stereo not given)
Ans. > 100 µM (inactive)

Qu. So what's the measured GI50 for this one? COc1ccc(NC(C(N)=O)c2cc3cc(Br)ccc3nc2Cl)cc1 (stereo not given)
Ans. 38.3 µM (inactive)

Qu. So what's the measured GI50 for this one? `Cc1nc2cccc(F)c2c(=O)n1-c1nnc(C2CC2)s1`
Ans. > 10 µM (inactive)

Qu. So what's the measured GI50 for this one? `N=C(N)NS(=O)(=O)c1ccc(NC(=O)c2cccc3c(Nc4ccc(S(=O)(=O)N=C(N)N)cc4)c4ccccc4nc23)cc1`
Ans. 99.1 µM (inactive)

Qu. So what's the measured GI50 for this one? CC(=O)OCC1OC(n2c3c(cc(C#N)c2=S)CCCCC3)C(OC(C)=O)C(OC(C)=O)C1OC(C)=O (stereo not given)
Ans. > 100 µM (inactive)

Qu. So what's the measured GI50 for this one? `COc1cccc(C(=O)N2CCc3ccccc32)c1OC`
Ans. 63.1 µM (inactive)

----------
# System: KM12
# assay_remarks: NCI tumour cell line growth inhibition, 48 h
Activity calls are given as the source filed them. Cut-off read from the data, not from the text of the source: active = GI50 up to about 1.1 µM and inactive = higher.
Pick one: active, inactive

compound	answer_label
O=P1(N(CCCl)CCCl)Oc2c(Cl)cc(Cl)c(Cl)c2Cc2c(Cl)c(Cl)cc(Cl)c2O1	inactive
Cc1ccc(/N=C2\N=C(N3CC(C)OC(C)C3)c3ccccc32)cc1 (stereo not given)	inactive
CN1C(=O)C2(Cc3cn(C45CC67SSC(CO)(C(=O)N6C4Nc4ccccc45)N(C)C7=O)c4ccccc34)SSC1(CO)C(=O)N2C (stereo not given)	active
Cc1ccc(NC(=O)C2C(=O)N(c3ccc(C)cc3)C(=O)/C2=N\NC(N)=S)cc1 (stereo not given)	inactive

Qu. Could you check what this test reported for COC(=O)/C(=N\NC(N)=S)C(C#N)c1ccccc1 (stereo not given) ?
Ans. inactive

----------
# System: SK-MEL-2
# assay_remarks: NCI tumour cell line growth inhibition, 48 h
The source made the active and inactive calls. Rule as the data show it: active = GI50 up to about 1.1 µM and inactive = higher.
Pick one: t (active), f (inactive)

Below, 3 molecules whose answers are already recorded.
molecule	answer_label
CCN(CC)c1ccc(/C=C/C2=NN(c3cccc(S(=O)(=O)O)c3)C3(C2)C(Cl)C(=O)N3c2nc3ccccc3s2)cc1 (stereo unspecified)	f
CCc1c(C)[nH]c2c1/C(=N/N=C1\CCCc3[nH]c(C)c(CC)c31)CCC2	f
Fc1ccc2c(c1)cc1ccc3cccc4ccc2c1c34	f

Qu. Could you check what this test reported for `O=C(O)CCCN1CCCCC1` ?
Ans. f

Qu. Could you check what this test reported for O=C(Nc1ncc([N+](=O)[O-])s1)c1ccccc1O [TIZOXANIDE] ?
Ans. f

Qu. Could you check what this test reported for `Cc1cc(C2(O)C=C(C(C)(C)C)C(=O)C(C(C)(C)C)=C2)c(C)cc1C1(O)C=C(C(C)(C)C)C(=O)C(C(C)(C)C)=C1` ?
Ans. f
